Reference for the values: PubChem BioAssay (NCATS)

Experiment: Quantitative High-Throughput drug screen in 47 multiple myeloma cell lines against the NCATS MIPE library collection: Karpas25_ECACC cell viability assay (AID 1918968; also: potency is read from the fitted curve at half-maximal effect; nearly all actives have a fitted effect of over 35% in size)
Conditions: Karpas25 myeloma viability, CellTiter-Glo ATP, 48 h; series mostly up to 45.8 µM
Results filed as inconclusive are left out. The source made the active and inactive calls. Calls follow the shape of the dose curve; as a rule, active = well fitted cell-killing curve with a large enough effect; inconclusive = small, poorly fitted or top-dose-only effect, or effect the other way; inactive = no such curve, though single readings can be large or run the other way.
Measured Potency by item

Here's what some known entries look like.
Lab book: Potency of O=C(C=Cc1cccnc1)NCCCCC1CCN(C(=O)c2ccccc2)CC1 noted as 5.9 nM (active)

The recorded Potency for CN(C1CCc2c(c3ccccc3n2CC(=O)O)C1)S(=O)(=O)c1ccc(F)cc1 (stereo unspecified) is 2090 nM (active)

So, C#Cc1cccc(Nc2ncnc3cc(OC)c(OCCCCCCC(=O)NO)cc23)c1 ? Its Potency was 52.6 nM (active)

---
Kindly note the recorded Potency for CCN(CC)CCNC(=O)c1ccc2nc(-c3ccccc3)c(-c3ccc(CN4CCC(n5c(=O)[nH]c6ccccc65)CC4)cc3)nc2c1 , which is 332 nM (active)

# Potency of OCCCNc1cc(-c2ccnc(Nc3cccc(Cl)c3)n2)ccn1 = 41.8 nM (active)

The compound identified as COc1cc(OC2CCN(C)CC2)ccc1Nc1ncc2c(n1)n(C1CCCC1)c(=O)n2C registered its Potency at 6620 nM (active)

// COc1ccc(-c2cc3c(C)nc(N)nc3n(C3CCC(OCCO)CC3)c2=O)cn1 (stereo unspecified) : Potency value = 26.4 nM (active)
